measurement label: melting point

Worked cases, answers included:
compound	melting point
CCCCCN(C(=O)Nc1ccc(C(=O)O)cn1)c1ccc2c(c1)C(C)(C)CCC2(C)C [Compound 49]	175 to 179.5 °C
CC1(C)CCC(C)(C)c2cc(N(CCCCO)C(=O)Nc3ccc(C(=O)O)cc3)ccc21 [Compound 71]	124 to 125 °C
CCN(C(=O)N(CC)c1ccc2c(c1)C(C)(C)CCC2(C)C)c1ccc(C(=O)O)cc1 [Compound 73]	169 to 172 °C
CC1(C)CCC(C)(C)c2cc(N(CCCCOCc3ccccc3)C(=O)Nc3ccc(C(=O)O)cc3)ccc21 [Compound 41]	158 to 162 °C
CCOCCN(C(=O)Nc1ccc(C(=O)O)cc1)c1ccc2c(c1)C(C)(C)CCC2(C)C [Compound 33]	82 to 85 °C

Return reported melting point; argument: CCCCCN(C(=O)Nc1ccc2c(c1)C(C)(C)CCC2(C)C)c1ccc(C(=O)O)cc1 [Compound 42]
201 to 202 °C
